# test_description: in vitro
# experimental_conditions: human, hela cells, % viability
For each record, write down the corresponding viability at 28.5 h, 10 µM.
Report as a plain number; the unit % is understood.

Please supply the value of reported viability at 28.5 h, 10 µM for the item Cc1ccc(-c2nn3c(C)nnc3c3ccccc23)cc1S(N)(=O)=O [CBK268342]
97.3

Identify measured viability at 28.5 h, 10 µM corresponding to COC(C)(C(=O)Nc1ccc(Cl)nc1)c1cccc2ccccc12 (stereo not drawn) [CBK091350]
102

// fetch viability at 28.5 h, 10 µM given entry CCC(CN1CCN(C)CC1)NC(=O)C1(c2cccc(F)c2)CC1 (stereo not drawn) [CBK282786]
110

Using the record for COc1ccc(C2NCCc3c2[nH]c2ccccc32)cc1CSc1nc2ccccc2s1 (stereo not drawn) [CBK264303C] , state its measured viability at 28.5 h, 10 µM.
96.8

Output measured viability at 28.5 h, 10 µM for this item: COc1c(Cl)cc(Cl)cc1CNCCCN1CCOCC1 [CBK278165C]
88.8

Tell me measured viability at 28.5 h, 10 µM for CCn1cc(C(=O)NC2CC3(CCCC3)Oc3ccccc32)c(C)n1 (stereo not drawn) [CBK282340] please.
91.2

====

Kindly state viability at 28.5 h, 10 µM for each of the entries shown.
# test_description: in vitro
# experimental_conditions: human, hela cells, % viability

Using the record for O=C(NCCc1nc2ccccc2[nH]1)c1cccs1 , state its measured viability at 28.5 h, 10 µM.
99.4%

Please give measured viability at 28.5 h, 10 µM of the following entry: FC(F)(F)c1ccc(OCCCc2ccncc2)nc1
101%

// fetch viability at 28.5 h, 10 µM given entry CN1CCN(c2ccc(C(=O)NC3CCCC3)cc2)CC1
78.5%

Complete the entry with viability at 28.5 h, 10 µM for CCC1C=CCC(C(=O)O)C1C(=O)Nc1ccc(C(=O)N2CCOCC2)cc1 (stereo not shown)
102%

====

# test_description: in vitro
# experimental_conditions: human, hela cells, % viability
measured_quantity: viability at 28.5 h, 10 µM
For clarity, give the value followed by its unit.

Answer with reported viability at 28.5 h, 10 µM of OC[C@H]1CCN(Cc2cc(Cl)ccc2OCCCn2ccnc2)C[C@H]1O [CBK306581]
88.4%

Please give the documented viability at 28.5 h, 10 µM of O=C(NCc1c(Cl)cccc1Cl)N(Cc1cccnc1)Cc1ccc2c(c1)OCO2 [CBK159450]
96.8%

Please report the measured viability at 28.5 h, 10 µM for COc1ccc2c(c1)c(C(=O)N1CCC3(CCNCC3)CC1)c(C)n2C [CBK306562]
72.9%

Note viability at 28.5 h, 10 µM for the molecule shown: CCOc1cc(OCC)cc(C(=O)N2CCC3(CC2)CC(=O)c2cc(OCC)ccc2O3)c1 [CBK168013]
87.2%

Read the entry Cc1nc2c(c(=O)[nH]1)CC[C@@H]1CN(C(=O)c3ccccc3F)C[C@H]21 [CBK284410] and write its reported viability at 28.5 h, 10 µM.
92.7%

Return value of viability at 28.5 h, 10 µM for input CCNC(=S)N[C@@H]1CC[C@@]2(Cc3ccc(OC)c(OC)c3)CCN(C)[C@H]2C1 [CBK023811] , no commentary.
94.5%

Return value of viability at 28.5 h, 10 µM for input Cn1c(C2CC(=O)N(c3ccc(Cl)cc3)C2)nc2ccccc21 (stereo not shown) [CBK287783] , no commentary.
87.1%

Supply viability at 28.5 h, 10 µM value. Item: CS(=O)(=O)N1CC[C@H](c2nc3cc(Cl)ccc3o2)C1 [CBK289370]
86%

// Input: CCOc1ccc(NC(=O)C2CCC(C)(C(=O)O)C2(C)C)cc1 (stereo not shown) [CBK295665] . Output its viability at 28.5 h, 10 µM only.
106%

Output viability at 28.5 h, 10 µM of O=S(=O)(Nc1nnc(C(F)(F)F)s1)c1csc2ccccc12 [CBK062009]
95.9%

Tell us which viability at 28.5 h, 10 µM value is on record for Cc1ccn(CCNC(=O)c2cc3cccc(C)c3nc2C)n1 [CBK282645]
82.3%

Provide measured viability at 28.5 h, 10 µM value, entry: COc1ccc2[nH]cc(CCNC(=O)[C@@H]3Cc4c([nH]c5ccccc45)C4(CCN(Cc5ccc(F)cc5)C4)N3)c2c1 (stereo partly shown) [CBK066937]
98%

Quote viability at 28.5 h, 10 µM reported for FC(F)(F)c1ccnc(OCCNc2ccccc2)n1 [CBK115839] please.
90.8%

Identify the reported viability at 28.5 h, 10 µM for the following entry. COc1ncc(-c2cccc(NCC(c3cccnc3)N(C)C)n2)c(OC)n1 (stereo not shown) [CBK037723]
104%

Return value of viability at 28.5 h, 10 µM for input COC(=O)c1sccc1NS(=O)(=O)c1ccc(C(F)(F)F)cc1 [CBK200041] , no commentary.
95.5%

Look up and state reported viability at 28.5 h, 10 µM for FC(F)(F)c1ccc(SCc2ccccc2)nc1 [CBK103715]
89.7%

Name the recorded viability at 28.5 h, 10 µM of the molecule listed here: c1ccc2cc(CCN3CCN(c4nccnc4OCCN4CCOCC4)CC3)ccc2c1 [CBK082911T]
87.6%

Note down viability at 28.5 h, 10 µM recorded for N#Cc1c(Oc2cccc3cccnc23)cccc1C(F)(F)F [CBK002728]
105%

Fill in viability at 28.5 h, 10 µM for record O=C(c1ccccn1)N1C[C@@H]2OCC(=O)N(Cc3ccccc3)[C@@H]2C1 [CBK289698]
84.3%

Consider the molecule Cn1cc(C(=O)NC2CCN(C(=O)c3cccc(C#N)c3)CC2)cn1 [CBK305673] and give its recorded viability at 28.5 h, 10 µM.
110%

In one line, give reported viability at 28.5 h, 10 µM of the entry CC(C)c1nc(CC(=O)NCCS(=O)(=O)N2CCc3ccccc32)cs1 [CBK305630] .
84.5%

Quickly give me recorded viability at 28.5 h, 10 µM for Cc1c(NC(=O)CSc2nnc(-c3cccc([N+](=O)[O-])c3)n2C)c(=O)n(-c2ccccc2)n1C [CBK266757]
95.4%

Return viability at 28.5 h, 10 µM for the following molecule: N#C/C(=C\c1ccc(OCC(=O)c2ccc(F)cc2)cc1)c1nc(-c2cc3ccccc3oc2=O)cs1 [CBK266769]
90.6%

Output measured viability at 28.5 h, 10 µM for this item: CN(C)C(=S)Oc1ccc2[nH]c3c(c2c1)CCNC31CCN(CCOc2ccccc2)C1 (stereo not shown) [CBK105748]
74.8%

Specify viability at 28.5 h, 10 µM for O=C(Cn1cccc2cc(-c3cccs3)nc1-2)NC1CC1 [CBK281897] and stop.
108%

Consider the molecule Cn1cc(CC2CCN(Cc3ccc(Oc4cnccn4)cc3)C2)cn1 (stereo not shown) [CBK304188] . State its measured viability at 28.5 h, 10 µM.
108%

Please give measured viability at 28.5 h, 10 µM of the following entry: CC(C)C[C@H](NC(=O)COc1ccc2nc3n(c(=O)c2c1)CCCCC3)C(=O)O [CBK286656]
88.3%

Determine from records and report viability at 28.5 h, 10 µM for Cc1ccc(S(=O)(=O)Nc2ccc(C(=O)O)cc2)cc1 [CBK034060]
85.3%
